# measured_on: T1, full-length hANGPTL4 (amino acid residues 26-406 of SEQ ID NO:476) with a C-terminal hexa-histidine tag (human, UniProt Q9BY76 26-406)
# T1 construct: also called hANGPTL4-His; hANGPTL4(26-406)-His
# T1 sequence: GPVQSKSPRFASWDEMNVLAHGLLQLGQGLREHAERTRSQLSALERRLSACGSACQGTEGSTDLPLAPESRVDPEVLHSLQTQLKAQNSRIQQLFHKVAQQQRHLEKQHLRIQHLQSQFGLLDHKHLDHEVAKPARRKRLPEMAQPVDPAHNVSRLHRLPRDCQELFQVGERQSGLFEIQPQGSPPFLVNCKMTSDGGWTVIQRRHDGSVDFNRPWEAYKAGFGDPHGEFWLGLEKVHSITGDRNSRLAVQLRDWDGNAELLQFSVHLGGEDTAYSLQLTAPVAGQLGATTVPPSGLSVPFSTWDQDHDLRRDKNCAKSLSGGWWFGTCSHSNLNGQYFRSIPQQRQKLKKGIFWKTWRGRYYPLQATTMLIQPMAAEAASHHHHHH
# protocol_text: SPR (Biacore), 25° C., pH 5.75, antigen amino-coupled 450 RU
quantity_measured: pKd
Keep in mind that pKd stands for -log10 of concentration in molar terms.

Some binders with recorded pKd:
Query (binder): H1H284P (antibody, V domains shown, also called entire H1H284 mAb; Full mAb) VH: QVQLVESGGGVVQPGRSLRLSCAASGFTFSSYGMHWVRQAPGKGLEWMAVISFDGGNKNNADSVKGRFTISRDNSKNTLYLQMNSLRAEDTAVYYCAKEGDRSGHPYFYYYGLDVWGQGTTVTVS VL: DIQLTQSPSFLSASVGDRVTITCWASQGISSYLAWYQQKPGKAPKLLIYAASTLQSGVPSRFSGSGSETEFTLTISSLQPEDFATYYCQQLHSYPLTFGGGTKVEIK ; field requested: pKd
9.85

Record request: pKd value, item H1H268P (antibody, V domains shown, also called entire H1H268 mAb; Full mAb) VH: QVQLQESGAGLLKPSETLSLTCTVYGGSFSIHHWTWIRHPPGKGLEWIGEINHRGSTNYNPSLKSRVTISIDTSKNQFSLKLSAVTAADTAVYYCARGLRFLDWLSSYFDYWGQGTLVTVSS VL: DIQMTQSPSSLSASVGDRVTITCRASQGISDYLAWYQQKPGKVPNLLIYAASALQSGVPSRFSGSGSGTDFTLTISSLQPEDVATYYCQNYNTAPLTFGGGTKVEIK
9.32

What pKd value was documented for this binder, H1H268P Fab fragment (Fab, V domains shown, Fab made by papain digestion of H1H268P (IgG1); also called H1H268 Fab) VH: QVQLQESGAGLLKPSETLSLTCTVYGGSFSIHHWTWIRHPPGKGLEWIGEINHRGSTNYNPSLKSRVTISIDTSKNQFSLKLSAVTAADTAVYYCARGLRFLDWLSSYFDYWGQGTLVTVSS VL: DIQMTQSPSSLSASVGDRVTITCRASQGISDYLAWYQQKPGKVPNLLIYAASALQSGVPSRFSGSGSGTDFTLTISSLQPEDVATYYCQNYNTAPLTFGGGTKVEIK ?
7.83

Others:
Entry H1H284P Fab fragment (Fab, V domains shown, Fab made by papain digestion of H1H284P (IgG1); also called H1H284 Fab) VH: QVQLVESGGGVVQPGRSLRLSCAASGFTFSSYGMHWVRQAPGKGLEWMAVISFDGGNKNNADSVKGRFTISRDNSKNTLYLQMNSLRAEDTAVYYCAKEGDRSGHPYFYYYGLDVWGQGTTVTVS VL: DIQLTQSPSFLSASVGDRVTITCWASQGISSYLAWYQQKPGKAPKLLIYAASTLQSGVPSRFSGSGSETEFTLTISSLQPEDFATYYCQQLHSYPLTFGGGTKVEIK has what pKd?
8.84
